I'd appreciate it if you could supply AUC(0-inf) values for the items below.
Assay: PK of single agents vs fixed dose combinations (FDC), single oral dose in healthy volunteers
Type: in vivo, human
Details: human, plasma, oral, Arm 4: FDC01; read-out: AUC∞ (mean ± SD)
Your reply should be a number followed by the unit it is expressed in.

Look up AUC(0-inf) for this compound: COc1ccc2c(O[C@@H]3C[C@H]4C(=O)N[C@]5(C(=O)NS(=O)(=O)C6CC6)C[C@H]5/C=C\CCCCN(C)C(=O)[C@@H]4C3)cc(-c3nc(C(C)C)cs3)nc2c1C [SMV, Simeprevir, reference compound]
12100 ng·h/mL

Look up AUC(0-inf) for this compound: C[C@]1(O)[C@H](n2ccc(=O)[nH]c2=O)O[C@](F)(CO)[C@H]1O
4560 ng·h/mL

Look up AUC(0-inf) for this compound: COC(=O)N[C@H](C(=O)N1[C@H](c2nc3cc(-c4cc5ccc4CCc4ccc(c(-c6ccc7[nH]c([C@@H]8C[C@@H]9CCCC[C@@H]9N8C(=O)[C@@H](NC(=O)OC)C(C)C)nc7c6)c4)CC5)ccc3[nH]2)C[C@@H]2CCCC[C@@H]21)C(C)C
15700 ng·h/mL

Look up AUC(0-inf) for this compound: C[C@H](NP(=O)(O)OC[C@@]1(F)O[C@@H](n2ccc(=O)[nH]c2=O)[C@](C)(O)[C@@H]1O)C(=O)O
926 ng·h/mL

* * *

Experiment: Phase-1 drug-drug interaction study in healthy volunteers (Compound (III) 800 mg, SMV 150 mg, Odalasvir 150 mg loading then 50 mg, once daily): plasma PK
Assay type: in vivo, human
Settings: both sexes, human, in vivo, Group 2, Day 3 (Compound (III) alone); read-out: AUC0-24
measured.attribute: AUC0-24
Your reply should be a number followed by the unit it is expressed in.

Look up AUC0-24 for this molecule: CC(C)OC(=O)[C@H](C)N[P@](=O)(OC[C@@]1(F)O[C@@H](n2ccc(=O)[nH]c2=O)[C@](C)(O)[C@@H]1O)Oc1ccccc1
325 ng·h/mL

* * *

Assay: PK of single agents vs fixed dose combinations (FDC), single oral dose in healthy volunteers
Format: in vivo, human
Conditions: Arm 3 (FDC04) vs reference (Arm 1)
I'd appreciate it if you could supply Least Square Means Ratio, Cmax values for the items below.
Quick reminder: number only, in %, skip the unit.

Look up Least Square Means Ratio, Cmax for this compound: C[C@H](NP(=O)(O)OC[C@@]1(F)O[C@@H](n2ccc(=O)[nH]c2=O)[C@](C)(O)[C@@H]1O)C(=O)O
119.82

Look up Least Square Means Ratio, Cmax for this compound: C[C@]1(O)[C@H](n2ccc(=O)[nH]c2=O)O[C@](F)(CO)[C@H]1O
119.83

Look up Least Square Means Ratio, Cmax for this compound: COC(=O)N[C@H](C(=O)N1[C@H](c2nc3cc(-c4cc5ccc4CCc4ccc(c(-c6ccc7[nH]c([C@@H]8C[C@@H]9CCCC[C@@H]9N8C(=O)[C@@H](NC(=O)OC)C(C)C)nc7c6)c4)CC5)ccc3[nH]2)C[C@@H]2CCCC[C@@H]21)C(C)C
165.30

Look up Least Square Means Ratio, Cmax for this compound: COc1ccc2c(O[C@@H]3C[C@H]4C(=O)N[C@]5(C(=O)NS(=O)(=O)C6CC6)C[C@H]5/C=C\CCCCN(C)C(=O)[C@@H]4C3)cc(-c3nc(C(C)C)cs3)nc2c1C [SMV, Simeprevir, reference compound]
115.24

Look up Least Square Means Ratio, Cmax for this compound: CC(C)OC(=O)[C@H](C)N[P@](=O)(OC[C@@]1(F)O[C@@H](n2ccc(=O)[nH]c2=O)[C@](C)(O)[C@@H]1O)Oc1ccccc1
122.40

Cited source for all entries: patent US20170087174A1
